// provenance: paper PMC9586895

Below, each of the compounds is paired with its reported AUC(0-inf) value.
# test-method-notes: Pharmacokinetic study in Wistar rats, plasma levels by HPLC/MS, non-compartmental analysis
# Format: in vivo
# condition-parameters: Wistar, rat, plasma, po, ESO 5 mg/kg + AP 250 mcg/kg in combination
# Experimental: The column is ACE C8 (50 ∗ 4.6) mm, particle size 5 μm (Supercell), and AP 13C as the internal standard. […] The chromatographic conditions of Ap and ESO analysis were as follows: The HPLC system: […] Detector: API 4000, Applied Biosystems, MDS SCIEX; computer system: […] Data Management Software: […] Column: ACE C8, (50 ∗ 4.6) mm, particle size 5 μm; Flow Rate: 650 μL/min; Injection Volume: 1 μL; […] Expected retention time: […] […]
property-measured: AUC(0-inf)

- compound: "COc1ccc2[nH]c([S+]([O-])Cc3ncc(C)c(OC)c3C)nc2c1 (centres unmarked)"
  value-measured: "3410 ng·h/mL"
- compound: "COc1ccc(-n2nc(C(N)=O)c3c2C(=O)N(c2ccc(N4CCCCC4=O)cc2)CC3)cc1"
  value-measured: "1560 ng·h/mL"
